Reference for the values: ChEMBL document CHEMBL1157439

target: UniProt P34972; test: Agonist activity at cloned human CB2 receptor in Sf9 cells assessed by [35S]GTPgammaS binding assay relative to delta9-THC; type: functional
Sequence (P34972 whole entry): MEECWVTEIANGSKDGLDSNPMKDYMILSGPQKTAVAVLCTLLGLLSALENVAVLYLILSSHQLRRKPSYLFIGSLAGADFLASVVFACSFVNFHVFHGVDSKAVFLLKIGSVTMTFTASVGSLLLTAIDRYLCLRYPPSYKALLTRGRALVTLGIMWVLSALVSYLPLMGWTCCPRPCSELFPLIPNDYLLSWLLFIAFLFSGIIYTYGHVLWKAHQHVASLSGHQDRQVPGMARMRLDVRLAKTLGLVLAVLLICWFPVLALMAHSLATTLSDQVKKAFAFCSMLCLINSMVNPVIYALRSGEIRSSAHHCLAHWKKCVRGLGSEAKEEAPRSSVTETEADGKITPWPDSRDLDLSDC
Each entry below carries its reported Emax.

[[record]]
smiles_entry = "CCOc1ccc(Cc2nc3cc(C(=O)N(CC)CC)ccc3n2CCC(C)C)cc1"
result = "63%"


-- ask Please report the recorded Emax for `CCOc1ccc(Cc2nc3cc(C(=O)N(CC(F)(F)F)CC(F)(F)F)ccc3n2CC2CC2)cc1` .
-- reply 51%

-- ask Repeat with `Cc1c(C(=O)c2cccc3ccccc23)c2cccc3c2n1[C@H](CN1CCOCC1)CO3`
-- reply 64%
